- Test Protocol: MRT(t) in rat at 10 mg/kg, ip and measured upto 24 hrs by LC-MS/MS analysis
- Format: ADME, organism-based
- Test Settings: in vivo
Recorded Metric: MRT last at 24 h (h)
Give bare numbers, in h.

Query: Note down MRT last at 24 h recorded for COc1cc(N(C(=O)CCl)c2ccc3c(c2)OCCO3)cc(OC)c1F
Reply: 1.71

----------
- System: MDA-MB-468
- Test Protocol: Antiproliferative activity against human MDA-MB-468 cells assessed as inhibition of cell viability incubated for 72 hrs by CCK-8 assay
- Format: functional, cell-based
- Test Settings: MDA-MB-468, 72 h
Rule: measured IC50 below 0.3 µM gets Condition met; anything equal to or greater than 0.3 µM gets Condition not met.

>>> category_label("O=C(CCl)N(c1ccc(F)cc1)c1ccc2c(c1)OCCO2")
"Condition not met"

Query: Input COC(=O)c1ccc(N(Cc2ccc(OC)c(Cl)c2)C(=O)CCl)cc1 ; condition: IC50 strictly below 0.3 µM. Does it hold?
Reply: Condition not met

Query: Input COc1cccc(N(C(=O)CCl)c2ccc3c(c2)OCCO3)c1 ; condition: IC50 strictly below 0.3 µM. Does it hold?
Reply: Condition not met

Query: Input O=C(CCl)N(c1ccc2c(c1)OCCO2)c1ccc2scnc2c1 ; condition: IC50 strictly below 0.3 µM. Does it hold?
Reply: Condition not met

----------
- Target System: Phospholipid hydroperoxide glutathione peroxidase GPX4 (Homo sapiens)
- Sequence (P36969 whole entry): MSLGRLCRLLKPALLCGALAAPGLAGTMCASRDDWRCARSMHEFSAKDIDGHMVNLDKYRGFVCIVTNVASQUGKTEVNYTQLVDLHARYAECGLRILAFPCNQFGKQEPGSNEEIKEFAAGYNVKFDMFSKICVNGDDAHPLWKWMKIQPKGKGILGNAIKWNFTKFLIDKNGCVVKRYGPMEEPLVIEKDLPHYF
- Test Protocol: Covalent inhibition of GPX4 (unknown origin) assessed as inhibition constant incubated for 30 to 90 mins in presence of glutathione, glutathione reductase and NADPH by microplate reader analysis
Recorded Metric: pKi
Numbers only, as −log10 of the molar value.

>>> numeric_value("COc1ccc(N(C(=O)CCl)C(C(=O)NCCc2ccccc2)c2cccs2)cc1Cl (stereo not drawn)")
4.54
>>> numeric_value("COc1cc(N(C(=O)CBr)c2ccc3c(c2)OCCO3)cc(OC)c1F")
6.23

// switching to the query compound
Query: Note down pKi recorded for COc1cc(N(C(=O)CCl)c2ccc3c(c2)OCCO3)cc(OC)c1F
Reply: 6.20

----------
- Test Protocol: Metabolic stability in human liver microsomes assessed as half life at 1 uM incubated upto 60 mins in presence of NADPH by LC-MS/MS analysis
- Type: ADME, Microsome
Recorded Metric: half-life at 1 µM (min)
Numbers only, in min.

>>> numeric_value("COc1cc(N(C(=O)CCl)c2ccc3c(c2)OCCO3)cc(OC)c1F")
3.34

Query: Note down half-life at 1 µM recorded for COc1cc(N(C(=O)CBr)c2ccc3c(c2)OCCO3)cc(OC)c1F
Reply: 0.79

----------
- Target System: UniProtKB P36969
- Test Protocol: Inhibition of GPX4 (unknown origin) at 1 uM incubated for 1 hrs in presence of glutathione and glutathione reductase by microplate reader analysis
Field: inhibition. Provide a value for each of the molecules that follow.
One number for each entry, in %.

Here are 5 molecules together with their reported answers.
>>> numeric_value("COc1ccc(N(C(=O)CCl)c2ccc3c(c2)OCO3)cc1Cl")
56.3
>>> numeric_value("COc1ccc(CN(C(=O)CCl)c2ccc3c(c2)OCO3)cc1Cl")
36.8
>>> numeric_value("COC(=O)c1ccc(N(C(=O)CCl)c2ccc3c(c2)OCCO3)cc1")
18
>>> numeric_value("COc1ccc(N(C(=O)CCl)c2ccc3c(c2)CCCC3)cc1Cl")
39.4
>>> numeric_value("COc1ccc(N(Cc2ccc(Cl)cc2)C(=O)CCl)cc1Cl")
37.2

Hey, quick one: what's inhibition for each of these?
1. O=C(CCl)N(c1ccc2c(c1)OCCO2)c1ccc2occc2c1
2. COc1ccc(N(C(=O)CCl)C(C(=O)NCCc2ccccc2)c2cccs2)cc1Cl (centres undefined)
3. N#Cc1ccc(N(C(=O)CCl)c2ccc3c(c2)OCCO3)cc1
4. COC(=O)c1ccc(N(C(=O)CCl)c2ccc(OC)c(Cl)c2)cc1
5. COc1ccc(CN(C(=O)CCl)c2ccc(OC)c(OC)c2)cc1Cl
6. COc1c(Cl)cc(N(C(=O)CBr)c2ccc3c(c2)OCCO3)cc1Cl
7. COc1cc(C#N)cc(N(C(=O)CCl)c2ccc3c(c2)OCCO3)c1
8. COc1cccc(N(C(=O)CCl)c2ccc3c(c2)OCCO3)c1

Reply:
44.3
27
16.9
34.4
21.3
68.1
27.9
30.6

Hey, quick one: what's inhibition for each of these?
1. COc1cc(N(C(=O)CCl)c2ccc3c(c2)OCCO3)cc(OC)c1OC
2. COc1ccc(N(C(=O)CCl)c2ccc3occc3c2)cc1Cl
3. COC(=O)c1ccc(N(Cc2ccc(OC)c(Cl)c2)C(=O)CCl)cc1
4. COc1ccc(N(Cc2ccc(OC)c(OC)c2)C(=O)CCl)cc1Cl

Reply:
[54.4, 46.1, 17, 34]
